The measurements presented in this section are drawn from PubChem BioAssay (NCI).

# System: K-562 leukemia
# assay-overview: NCI-60 one-dose screen, 48 h (100 = growth as untreated, 0 = no growth, -100 = all killed)
# test-conditions: 10 µM unless noted
About 83,000 compounds went through this panel and 20% of them were active in at least one assay; those are over-represented in the sample as a whole.
# growth >= 60% gives MET, anything below gives NOT MET

Solved cases below.
[[record]]
molecule = "COc1ccc(C2[C@@H](Cl)C(=O)N2c2cc(OC)c(OC)c(OC)c2)cc1Cl (stereo partly specified)"
class_label = "NOT MET"

[[record]]
molecule = "CCN(CC)CCOc1ccc2ccc(=O)oc2c1"
class_label = "NOT MET"

[[record]]
molecule = "O=C(Nc1ncc(Cc2ccccc2)s1)c1sc2ccccc2c1Cl"
class_label = "NOT MET"

[[record]]
molecule = "Oc1ccc(-c2nc3ccc4[nH]ncc4c3c3c2CCCC3)c(F)c1"
class_label = "NOT MET"

[[record]]
molecule = "COc1ccc(C(=O)Nc2ncc(Cc3ccc(Cl)cc3)s2)cc1"
class_label = "NOT MET"

[[record]]
molecule = "COC1/C=C/OC2(C)Oc3c(C)c(O)c4c(O)c(c(/C=N/N(c5ccccc5)c5ccccc5)c(O)c4c3C2=O)NC(=O)C(C)=C/C=C/C(C)C(O)C(C)C(O)C(C)C(OC(C)=O)C1C (stereo unspecified)"
class_label = "MET"

[[record]]
molecule = "Cc1ccc(S(=O)(=O)N2CCCN(c3nc(-c4ccccc4)nc4nc(-c5ccccc5)oc34)CC2)cc1"
class_label = "MET"

[[record]]
molecule = "Oc1c(CN2CCC(N3CCOCC3)CC2)cc(Cc2cc(CN3CCC(N4CCOCC4)CC3)c(O)c3ncccc23)c2cccnc12"
class_label = "NOT MET"

[[record]]
molecule = "CC(C)c1ccc2c(c1)CC[C@H]1[C@](C)(C(=O)OCC#CCN3CCCC3)CCC[C@]21C"
class_label = "NOT MET"

[[record]]
molecule = "O=C1/C(=C/c2ccccn2)SC(=S)N1N1CCOCC1"
class_label = "MET"


Task item: # bool: growth of C=CC(CC(c1ccccc1)(c1ccccc1)c1ccccc1)N(CC)CC (stereo unspecified) >= 60%
Reply: NOT MET

Task item: # bool: growth of COC(=O)c1c2c(c(C)[n+]([O-])c1C)C(=O)C(NCc1ccccc1)=CC2=O >= 60%
Reply: NOT MET

Task item: # bool: growth of Nc1ncccc1O >= 60%
Reply: MET

Task item: # bool: growth of C(=C(\C1=NCCN1)n1ccc2ccccc21)/c1ccccc1 >= 60%
Reply: MET

----------
# System: MALME-3M melanoma
# assay-overview: NCI-60 one-dose screen, 48 h (100 = growth as untreated, 0 = no growth, -100 = all killed)
# test-conditions: 10 µM unless noted
This is part of a sample that, as a whole, favours compounds with a hit. Of some 83,000 tested, about 20% had one in any assay.
In plain terms, low growth, meaning strictly below 90%, gives Y, and everything else gives N.

Solved cases below.
[[record]]
compound = "COc1cc(-c2nccc3[nH]c(-c4cccc5[nH]ccc45)nc23)cc(OC)c1OC"
class_label = "Y"

[[record]]
compound = "CCn1cc(Cc2cc(C(=O)Nc3cc4cc(OC)c(OC)cc4c(C)n3)ccc2Cl)cn1"
class_label = "Y"

[[record]]
compound = "O=S(=O)(N=C1C(Cl)=C(Cl)C(=NS(=O)(=O)c2ccccc2)C(Cl)=C1Cl)c1ccccc1"
class_label = "N"

[[record]]
compound = "COc1ccc(N/N=C/c2cn(-c3ccc(C(=O)O)cc3)nc2-c2cc3ccccc3oc2=O)cc1"
class_label = "N"

[[record]]
compound = "CN(C)Cc1ccc(NC(=O)c2cncc(C#Cc3cnc(N)c4ncccc34)c2)cc1C(F)(F)F"
class_label = "Y"

[[record]]
compound = "Cc1cc(O)c(=O)cc2c1C[C@H]1CC(C)(C)/C=C/C[C@]3(C)Oc4cc(=O)c(O)cc(C)c4C[C@H]3C[C@H](O)[C@@]1(C)O2"
class_label = "Y"

[[record]]
compound = "COc1cc2ncnc(Nc3ccc(F)c(Cl)c3)c2cc1OCC(=O)N1CCOCC1"
class_label = "N"

[[record]]
compound = "O=C(/C=C/C12c3ccccc3C(c3ccccc31)C1C(=O)NC(=O)C12)c1ccco1 (stereo not drawn)"
class_label = "Y"


Task item: In plain terms, does COc1ccc(C2[C@@H](c3ccccc3)C(=O)N2c2cc(OC)c(OC)c(OC)c2)cc1F (stereo partly drawn) come in under 90% for growth?
Reply: Y

Task item: In plain terms, does CC(=O)Nc1sc2c(c1-c1nc3ccccc3s1)CNC2 come in under 90% for growth?
Reply: Y

Task item: In plain terms, does COc1ccc(/C=C(\C(=O)NCc2cccnc2)S(=O)(=O)c2ccccc2)cc1OC come in under 90% for growth?
Reply: Y
